# Test system: HCT-15 colon
# Assay Overview: NCI-60 one-dose screen, 48 h (100 = growth as untreated, 0 = no growth, -100 = all killed)
# Measurement Parameters: 10 µM unless noted
Compounds without any hit were thinned out: in the full panel of roughly 83,000, 20% have a hit.
Items are presented alongside their recorded growth.
Numeric only. Scale: %

COc1ccc(-c2cc(-c3cccc4ccccc34)n3c(n2)nc2ccccc23)cc1OC :: 27.4
COc1ccc(-c2nc(SCCC(C)C)nc(N/N=C\c3ccc(O)cc3)c2C#N)cc1 :: 28.2
CCN(CC)Cc1c(-c2cccc(OC(F)(F)F)c2)[nH]c2ccc(N3CCCC3)cc2c1=O :: 90.1
CCOC(=O)c1c(NC(=O)c2ccc(C(C)(C)C)cc2)sc2cc(OCCN3CCCCC3)ccc12 :: 22.3
CCOC(=O)c1c(Nc2ccccc2)nn2c(-c3ccc(Br)cc3)ccnc12 :: 66.4

Look at this molecule and give its reported growth. `CCNC(=O)Oc1ccc(/C(=C(/C)c2ccc(Cl)cc2)c2ccc(OCCN(C)C)cc2)cc1`
47

Consider next the molecule `COc1ccc2c(C3=C(c4cn(C)c5ccccc45)C(=O)NC3=O)coc2c1` in the same way.
20

Consider next the molecule `CCOC(=O)c1c(NCC(=O)Nc2ccc(Br)cc2)sc2c1CCCC2` in the same way.
-14.2

Consider next the molecule `N#C/C(=C\c1ccc(Cl)cc1Cl)C(N)=O` in the same way.
87.7

Consider next the molecule `COc1cnc2c(c1)C(=O)c1c-2n(CCCn2ccnc2)c(=O)c2cc(OC)c(OC)cc12` in the same way.
-53.2
